# ASSAY PROTOCOL: TROY pathway blockers in reporter cells – Q293 LMP1-TROYcd cells, NF-kB luciferase, uHTS, primary screen (AID 1347056)
# CONDITION LABEL: 4 h, at 10 µM
The campaign covered roughly 360,000 compounds. About 3,600 (1%) were called active.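 Rule for the calls: active = compounds whose plate-normalised and pattern-corrected inhibition of the luciferase reporter signal at the single screening dose is 50% or more; inactive = the rest.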 For the sample, actives were picked, then their nearest neighbours and some compounds at random.
# valid calls are class 1 = active, class 0 = inactive; nothing else

Query: recorded result category for `COc1ccc(Nc2ncnc3ccc(Br)cc23)c(OC)c1` in this test
class 1

Query: recorded result category for `Cc1ccc(NNC(=O)C2CCC2)cc1C` in this test
class 0

Query: recorded result category for COc1ccc(C(C)=O)cc1CN1C(=O)NC2(CCCCC2C)C1=O (configuration not stated) in this test
class 0

Query: recorded result category for `CCc1nc2ccc(C(=O)N3CCN(S(=O)(=O)CC)CC3)cn2c1N(C=O)CCC(C)C` in this test
class 0

Query: recorded result category for `COc1ccc(C(=O)O)cc1S(=O)(=O)NCc1cccnc1` in this test
class 0

Query: recorded result category for `Oc1cccc2ccc(/C=C/c3ccc(Br)s3)nc12` in this test
class 0

Query: recorded result category for `Cc1cc(=O)c2ccc(NC(=O)c3ccccc3)cc2[nH]1` in this test
class 0

Query: recorded result category for C/C(CC(=O)NC(C)c1ccccc1)=N\NC(N)=S (configuration not stated) in this test
class 0

Query: recorded result category for `CCCCc1c(-c2ccc(Cl)cc2)ncn1CCc1ccccc1OC` in this test
class 0

Query: recorded result category for `CCCCCc1nnc(NC(=O)c2ccc(=O)n(C)n2)s1` in this test
class 0

Query: recorded result category for `Cc1ccc(N/C=C/C(=O)c2ccccc2)cc1C` in this test
class 1

Query: recorded result category for `OC[C@@H]1CN(Cc2cccs2)C[C@H](n2cnc3c(NC4CCCC4)ncnc32)O1` in this test
class 0

Query: recorded result category for `COc1ccc(C(=O)Nc2c(N)nc(SCC(=O)Nc3ccc(C(C)=O)cc3)[nH]c2=O)cc1` in this test
class 0

Query: recorded result category for CCCCCCN1CCN(C2CN(Cc3cn(Cc4ccc(F)cc4)nn3)S(=O)(=O)C2)CC1 (configuration not stated) in this test
class 0

Query: recorded result category for `Cc1ccc(OCCCC(=O)Nc2ccc(N3CCOCC3)cc2)cc1` in this test
class 0

Query: recorded result category for `C#CCNC(=O)[C@H](Cc1ccc(C(=O)c2ccccc2)cc1)NC(=O)OC(C)(C)C` in this test
class 0

Query: recorded result category for `OC[C@@H]1CN(Cc2ccc(F)cc2)C[C@H](n2cnc3c(NC4CCCC4)ncnc32)O1` in this test
class 0

Query: recorded result category for `C(=N\Nc1ccc2ccccc2n1)/c1ccc2c(c1)OCO2` in this test
class 1

Query: recorded result category for Cc1cccnc1C(NC(=O)C1CCN(Cc2ccc(Cl)c(Cl)c2)CC1)c1ccc(Cl)cc1 (configuration not stated) in this test
class 0

Query: recorded result category for `CCn1c(Cc2ccc(OC)cc2)nnc1SCC(=O)Nc1ccc(N2CCOCC2)cc1` in this test
class 0

Query: recorded result category for `COc1cccc(/C=C(/CC(=O)Nc2ccc(N3CCOCC3)cc2)c2nc3ccccc3s2)c1` in this test
class 1

Query: recorded result category for `COc1ccc(OC)c(Nc2nc3ccccc3n3cnnc23)c1` in this test
class 0
